# Test Target: 15N-labelled NDM-1 (Klebsiella pneumoniae)
# Construct: made in house
# Sequence (C7C422 29-270 limits assumed): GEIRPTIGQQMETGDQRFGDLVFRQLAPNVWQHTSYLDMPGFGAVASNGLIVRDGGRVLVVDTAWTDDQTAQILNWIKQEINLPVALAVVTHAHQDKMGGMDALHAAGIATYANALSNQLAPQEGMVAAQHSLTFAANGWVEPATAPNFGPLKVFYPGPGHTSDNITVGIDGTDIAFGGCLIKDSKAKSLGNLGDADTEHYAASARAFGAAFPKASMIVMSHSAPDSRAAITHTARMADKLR
# Protocol Summary: 1H,15N HSQC NMR chemical shift perturbation titration, NDM-1
# Type: binding
# Condition Label: Estimated binding constant (Kd), residue 152E, Table S5; per-residue fit, NDM-1 152E
Observed Property: Kd (mM)
Answer in mM, number only, no unit symbol.

O=C(NC(C1CCCCN1)P(=O)(O)O)c1ccsc1 (stereo not shown) = 3.85
O=C(NC(C1CCCCN1)P(=O)(O)O)c1cccs1 (stereo not shown) = 3.52
O=C(Cc1cccs1)NC(C1CCCCN1)P(=O)(O)O (stereo not shown) = 1.18

Next compound, please.
# value lookup — system 15N-labelled NDM-1 (Klebsiella pneumoniae), readout Kd, item O=C(Cc1ccsc1)NC(C1CCCCN1)P(=O)(O)O (stereo not shown)
32.9
